Ref: ChEMBL document CHEMBL4715697

tested on: KM12; experiment: Growth inhibition of human KM12 cells assessed as cell growth at 10 uM incubated for 48 hrs by sulforhodamine B assay relative to control; type: functional; conditions: read-out: Activity
assay-endpoint: growth at 10 µM

- input-smiles: "CC(=O)Nc1cc(CO)cc(NC(=O)c2ccccc2)c1"
  growth at 10 µM: "116%"
- input-smiles: "CC(=O)Nc1cc(CCl)cc(NC(=O)c2ccc(C(=O)NCCCN(C)C)cc2)c1"
  growth at 10 µM: "107%"
- input-smiles: "CC(=O)Nc1cccc(NC(=O)c2ccc(C(=O)Nc3cc(CO)cc(NC(C)=O)c3)cc2)c1"
  growth at 10 µM: "111%"
- input-smiles: "CC(=O)Nc1cc(CO)cc(NC(=O)c2ccc(C(=O)NCCCN(C)C)cc2)c1"
  growth at 10 µM: "118%"
- input-smiles: "CC(=O)Nc1cc(CO)cc(NC(=O)c2ccc(NC(=O)CCCN3CCOCC3)cc2)c1"
  growth at 10 µM: "109%"
- input-smiles: "CCN(CC)CC(=O)Nc1ccc(C(=O)Nc2cc(CO)cc(NC(C)=O)c2)cc1"
  growth at 10 µM: "107%"
- input-smiles: "CC(=O)Nc1cc(CO)cc(NC(=O)c2ccc(C(=O)Nc3cccc(NC(=O)CCCN(C)C)c3)cc2)c1"
  growth at 10 µM: "83.1%"
- input-smiles: "CC(=O)Nc1cc(CO)cc(NC(=O)c2cccc(NC(=O)CCCN3CCOCC3)c2)c1"
  growth at 10 µM: "135%"

Turning now to a further compound:
For this compound ( CC(=O)Nc1cc(CO[Si](C)(C)C(C)(C)C)cc(NC(=O)c2ccc(C(=O)Nc3cccc(NC(=O)CCCN(C)C)c3)cc2)c1 ), measured growth at 10 µM is 95%

====

Documented growth at 10 µM across a set of compounds
tested on: SK-MEL-2; experiment: Growth inhibition of human SK-MEL-2 cells assessed as cell growth at 10 uM incubated for 48 hrs by sulforhodamine B assay relative to control; format: functional; conditions: read-out: Activity
Please reply with the bare figure in % and do not write the unit itself.

Worked cases, growth at 10 µM given:
- input-smiles: "CC(=O)Nc1cc(CO)cc(NC(=O)c2ccccc2)c1"
  unit-abbreviation: "%"
  observed-result: 111
- input-smiles: "CCN(CC)CC(=O)Nc1cccc(C(=O)Nc2cc(CO)cc(NC(C)=O)c2)c1"
  unit-abbreviation: "%"
  observed-result: 99.8
- input-smiles: "CC(=O)Nc1cc(CO)cc(NC(=O)c2ccc(C(=O)NCCCN(C)C)cc2)c1"
  unit-abbreviation: "%"
  observed-result: 92.9
- input-smiles: "CC(=O)Nc1cc(CO)cc(NC(=O)c2ccc(C(=O)NCCCN3CCOCC3)cc2)c1"
  unit-abbreviation: "%"
  observed-result: 94.3

Query compound follows.
Lab note: measured growth at 10 µM of CC(=O)Nc1cc(CCl)cc(NC(=O)c2ccc(C(=O)Nc3cccc(NC(=O)CCCN(C)C)c3)cc2)c1 was 116

====

system: PC-3; experiment: Growth inhibition of human PC-3 cells assessed as cell growth at 10 uM incubated for 48 hrs by sulforhodamine B assay relative to control; format: functional; details: read-out: Activity
The reader will find reported growth at 10 µM values listed item by item below.
Enter your answer as a number in %; do not include the unit.

As a guide, the following entries are already answered.
- input-smiles: "CC(=O)Nc1cc(CO[Si](C)(C)C(C)(C)C)cc(NC(=O)c2ccc(C(=O)Nc3cccc(NC(=O)CCCN(C)C)c3)cc2)c1"
  tested-on: "PC-3"
  unit-abbreviation: "%"
  growth at 10 µM: 97
- input-smiles: "CC(=O)Nc1cc(CO)cc(NC(=O)c2ccc(C(=O)NCCCN(C)C)cc2)c1"
  tested-on: "PC-3"
  unit-abbreviation: "%"
  growth at 10 µM: 97.9
- input-smiles: "CC(=O)Nc1cc(CO)cc(NC(=O)c2ccc(C(=O)NCCCN3CCOCC3)cc2)c1"
  tested-on: "PC-3"
  unit-abbreviation: "%"
  growth at 10 µM: 100
- input-smiles: "CC(=O)Nc1cc(CCl)cc(NC(=O)c2ccc(C(=O)Nc3cccc(NC(=O)CCCN(C)C)c3)cc2)c1"
  tested-on: "PC-3"
  unit-abbreviation: "%"
  growth at 10 µM: 104
- input-smiles: "CC(=O)Nc1cc(CCl)cc(NC(=O)c2ccc(C(=O)NCCCN(C)C)cc2)c1"
  tested-on: "PC-3"
  unit-abbreviation: "%"
  growth at 10 µM: 109

Briefly, growth at 10 µM measured for CC(=O)Nc1cc(CO)cc(NC(=O)c2ccccc2)c1 : 101

Measured growth at 10 µM, CCN(CC)CC(=O)Nc1ccc(C(=O)Nc2cc(CO)cc(NC(C)=O)c2)cc1 : 116

Reported growth at 10 µM for CC(=O)Nc1cccc(NC(=O)c2ccc(C(=O)Nc3cc(CCl)cc(NC(C)=O)c3)cc2)c1 was 95.2

Field growth at 10 µM (entry CC(=O)Nc1cc(CO)cc(NC(=O)c2ccc(NC(=O)CCCN3CCOCC3)cc2)c1 ) reads 104

====

system: NCI-H460; test: Growth inhibition of human NCI-H460 cells assessed as cell growth at 10 uM incubated for 48 hrs by sulforhodamine B assay relative to control; assay type: functional; conditions: read-out: Activity
assay-endpoint: growth at 10 µM (%)
I only need the number, in %, no unit after it.

- input-smiles: "CC(=O)Nc1cc(CO)cc(NC(=O)c2ccc(C(=O)Nc3cccc(NC(=O)CCCN(C)C)c3)cc2)c1"
  unit-abbreviation: "%"
  growth at 10 µM: 90.3
- input-smiles: "CC(=O)Nc1cccc(NC(=O)c2ccc(C(=O)Nc3cc(CO)cc(NC(C)=O)c3)cc2)c1"
  unit-abbreviation: "%"
  growth at 10 µM: 112
- input-smiles: "CCN(CC)CC(=O)Nc1ccc(C(=O)Nc2cc(CO)cc(NC(C)=O)c2)cc1"
  unit-abbreviation: "%"
  growth at 10 µM: 109
- input-smiles: "CC(=O)Nc1cc(CO[Si](C)(C)C(C)(C)C)cc(NC(=O)c2ccc(C(=O)Nc3cccc(NC(=O)CCCN(C)C)c3)cc2)c1"
  unit-abbreviation: "%"
  growth at 10 µM: 95
- input-smiles: "CC(=O)Nc1cc(CCl)cc(NC(=O)c2ccc(C(=O)NCCCN(C)C)cc2)c1"
  unit-abbreviation: "%"
  growth at 10 µM: 104

Per the records, this compound ( CC(=O)Nc1cccc(NC(=O)c2ccc(C(=O)Nc3cc(CCl)cc(NC(C)=O)c3)cc2)c1 ) has growth at 10 µM equal to 112

In plain terms, CC(=O)Nc1cc(CO)cc(NC(=O)c2ccc(NC(=O)CCCN3CCOCC3)cc2)c1 has a documented growth at 10 µM of 110

The compound CC(=O)Nc1cc(CO)cc(NC(=O)c2ccc(C(=O)Nc3cc(CO)cc(NC(C)=O)c3)cc2)c1 showed growth at 10 µM equal to 107

The measured growth at 10 µM associated with CC(=O)Nc1cc(CO)cc(NC(=O)c2ccc(C(=O)NCCCN3CCOCC3)cc2)c1 reads 111

====

tested on: HCT-116; assay: Growth inhibition of human HCT-116 cells assessed as cell growth at 10 uM incubated for 48 hrs by sulforhodamine B assay relative to control; assay type: functional; conditions: read-out: Activity
assay-endpoint: growth at 10 µM (%)
Numeric only. Scale: %

growth at 10 µM in this record for CC(=O)Nc1cc(CO)cc(NC(=O)c2cccc(NC(=O)CCCN3CCOCC3)c2)c1 : 98.9

The recorded growth at 10 µM for entry CC(=O)Nc1cccc(NC(=O)c2ccc(C(=O)Nc3cc(CO)cc(NC(C)=O)c3)cc2)c1 equals 105

Per the record, CC(=O)Nc1cc(CCl)cc(NC(=O)c2ccc(C(=O)NCCCN(C)C)cc2)c1 has growth at 10 µM of 103

Form: compound = CC(=O)Nc1cc(CO)cc(NC(=O)c2ccc(C(=O)Nc3cc(CO)cc(NC(C)=O)c3)cc2)c1 ; growth at 10 µM = 98.6

Briefly, growth at 10 µM measured for CC(=O)Nc1cc(CO)cc(NC(=O)c2ccc(NC(=O)CCCN3CCOCC3)cc2)c1 : 104

Measured growth at 10 µM, CC(=O)Nc1ccc(C(=O)Nc2cc(CO)cc(NC(C)=O)c2)cc1 : 106

Recorded result, CC(=O)Nc1cc(CO)cc(NC(=O)c2ccc(C(=O)NCCCN3CCOCC3)cc2)c1 , growth at 10 µM: 105

Kindly note the recorded growth at 10 µM for CCN(CC)CC(=O)Nc1ccc(C(=O)Nc2cc(CO)cc(NC(C)=O)c2)cc1 , which is 109

In plain terms, CC(=O)Nc1cc(CO)cc(NC(=O)c2ccccc2)c1 has a documented growth at 10 µM of 105

Entry under test: CC(=O)Nc1cccc(NC(=O)c2ccc(C(=O)Nc3cc(CCl)cc(NC(C)=O)c3)cc2)c1 . Its growth at 10 µM was 116

Entry CCN(CC)CC(=O)Nc1cccc(C(=O)Nc2cc(CO)cc(NC(C)=O)c2)c1 — recorded growth at 10 µM = 99.6
